molecules and their reported growth
System: DU-145 prostate
Test: NCI-60 one-dose screen, 48 h (100 = growth as untreated, 0 = no growth, -100 = all killed)
Settings: 10 µM unless noted
This is part of a sample that, as a whole, favours compounds with a hit. Of some 83,000 tested, about 20% had one in any assay.
assay metric: growth (%)

O=C(CCCCCCN1CC(=O)N2[C@@H](C3CC3)c3[nH]c4ccccc4c3C[C@H]2C1=O)NO
70.9
COC(=O)c1cccc(NC2=C(Cl)C(=O)c3nc(C)ccc3C2=O)c1
105
O=C1C(SCc2ccccc2)=C(Cl)CN1c1ccc(Cl)cc1
49.5
COc1ccc(C2CC(c3cccc(OCCCCOc4cccc(C5=NN(C(C)=O)C(c6ccc(OC)cc6)C5)c4)c3)=NN2C(C)=O)cc1 (stereo not given)
81.6
Cc1csc(/N=C(N)/N=C(\N)c2cccnc2)n1
96.8

====

Test system: NCI-H23 lung
Assay: NCI-60 one-dose screen, 48 h (100 = growth as untreated, 0 = no growth, -100 = all killed)
Details: 10 µM unless noted
This is part of a sample that, as a whole, favours compounds with a hit. Of some 83,000 tested, about 20% had one in any assay.
molecules and their reported growth
assay metric: growth (%)

CN1CCN(c2ccc(Nc3nc(NCCCNS(=O)(=O)c4ccccc4)c4sccc4n3)cc2)CC1
90.6
Cc1ccc(NC(=O)/C=C/c2ccc(OCCCOc3ccc4c(C)cc(=O)oc4c3)cc2)cc1
75.1
CN1CCN(Cc2ccc(NC(=O)c3cncc(C#Cc4cnc(N)nc4)c3)cc2C(F)(F)F)CC1
26.5
CCC(=C(c1ccc(OCCN2CCCCCC2)cc1)c1ccc(OCCN2CCCCCC2)cc1)c1ccc(Cl)cc1
19.4
N#Cc1c(-c2cccs2)cc(-c2cnccn2)nc1SCC(=O)N/N=C/c1ccccc1
40.8
Cc1ccc([C@H]2c3[nH]c4ccccc4c3C[C@H]3C(=O)N(CCCCCCC(=O)NO)CC(=O)N23)s1
77.6
CCCCSC1=C(Cl)CN(c2ccccc2)C1=O
102
O=C(COc1ccc(/C=C2\C(=O)Nc3cc(Cl)ccc32)cc1)Nc1ccc(Cl)cc1
79.9
COc1cc(C(=O)c2cc(C(C)=O)c3ccc(C)cn23)cc(OC)c1OC
48.9
COc1cc(OC)cc(-c2cc(-c3c[nH]c4ccccc34)nc(-c3c[nH]c4ccccc34)c2C#N)c1
104
C=C(C)[C@@H]1CC[C@]2(COP(=O)(OCC)OCC)CC[C@]3(C)[C@H](CC[C@@H]4[C@@]5(C)CC[C@H](OP(=O)(OCC)OCC)C(C)(C)[C@@H]5CC[C@]43C)[C@@H]12
13.5
C=C(C=O)[C@@H]1CC[C@]2(C(=O)O)CC[C@]3(C)C(CC[C@@H]4[C@@](C)(CCC#N)[C@H](C(=C)C=O)CC[C@]43C)[C@@H]12 (some centres not stated)
17.6
C[C@H]1OCC2(CCN(c3cnc(C(=O)Nc4cc(F)cc5cccnc45)cn3)CC2)[C@H]1N
75.3
CCOP(=O)(OCC)OC[C@]12CC[C@@H](C)[C@H](C)C1C1=CC[C@@H]3[C@@]4(C)CCCNC(C)(C)[C@@H]4CC[C@@]3(C)[C@]1(C)CC2 (some centres not stated)
31.7
CC(C)=CCC[C@](C)(O)[C@H]1CC[C@]2(C)[C@@H]1CC[C@@H]1[C@@]3(C)CC[C@H](N)C(C)(C)[C@@H]3CC[C@]12C
76.5
O=C(/C=C/c1ccccc1)c1cccc(O)c1
104
COc1ccc(C(=NNS(=O)(=O)c2ccc(C)cc2)c2ccccc2)cc1OC
99.5

====

Tested on: CCRF-CEM leukemia
Test: NCI-60 one-dose screen, 48 h
Conditions: 10 µM unless noted
About 83,000 compounds went through this panel and 20% of them were active in at least one assay; those are over-represented in the sample as a whole. Calls of active or inactive are those of the source. How the source made its calls: active means growth percent below 10; inactive means the rest.
Outcomes: 1 (yes) (active), 0 (no) (inactive)

CC1=C(C)C(=O)C(Nc2ccc3c(c2)OCCO3)=C(Br)C1=O
0 (no)
CN(C)S(=O)(=O)c1ccc(-c2nc(C(Cl)Cl)nc3cc(-c4ccccc4)nn23)cc1
0 (no)
COc1cc(-c2nc(-c3ccccc3)[nH]c2-c2ccnc(NCCCNS(=O)(=O)c3ccc(C)cc3)n2)ccc1F
0 (no)
C=C(C)[C@@H]1CC[C@]2(C(=O)N3CCN(C)CC3)CC[C@]3(C)[C@H](CC[C@@H]4[C@@]5(C)CC[C@H](OP(=O)(OCC)OCC)C(C)(C)[C@@H]5CC[C@]43C)[C@@H]12
0 (no)
Nc1ccc(Nc2ncnc3sc4c(c23)CCN(Cc2ccccc2)C4)cc1
0 (no)
COc1cccc2c1C=CC1(O2)Oc2cccc(OC)c2C=C1C (stereo not drawn)
0 (no)
O=S(=O)(Oc1ccc(-c2cn3ccoc3n2)cc1)C1CCCCC1
0 (no)
COc1ccc(N2CCN(C3=C(Cl)C(=O)c4ncccc4C3=O)CC2)cc1
1 (yes)
COc1cc(C(=O)c2cc(C(C)=O)c3cccc(C)n23)cc(OC)c1OC
0 (no)
Clc1ccc2[nH]cc(-c3cncn3CCc3ccc4c(c3)OCO4)c2c1
0 (no)
C#C[C@]1(O)CC[C@H]2[C@@H]3CC=C4c5sc(Nc6cc(Cl)ccc6OC)nc5CC[C@]4(C)[C@H]3CC[C@@]21C
1 (yes)
O=C(CSc1nc2ccccc2c(=O)n1-c1ccc(Cl)cc1)N/N=C/c1ccc(Oc2ccc(Cl)cc2)cc1
1 (yes)
CC(=O)N(O)CCCCCNC(=O)CCC(=O)N(O)CCCCCNC(=O)CCC(=O)N(O)CCCCCN(CCCCCCCCCC[P+](c1ccccc1)(c1ccccc1)c1ccccc1)CCCCCCCCCC[P+](c1ccccc1)(c1ccccc1)c1ccccc1
1 (yes)
CN1CCN(c2ccc(Nc3nc(NCCNC(=O)c4ccc(F)cc4)c4sccc4n3)cc2)CC1
0 (no)
C#Cc1nc(/C=C/C(=O)NO)cs1
1 (yes)
CCOc1cccc(/C(N)=N/C(N)=N/c2nc3ccccc3s2)c1
0 (no)
Clc1ccc2[nH]cc(-c3nn4cc(-c5ccncc5)nc4s3)c2c1
0 (no)
O=S(=O)(Oc1ccc(-c2cn3ccsc3n2)cc1)c1cccc(C(F)(F)F)c1
0 (no)

====

Tested on: NCI-H522 lung
Assay: NCI-60 one-dose screen, 48 h (100 = growth as untreated, 0 = no growth, -100 = all killed)
Settings: 10 µM unless noted
The panel holds about 83,000 compounds, 20% with a hit somewhere; the sample as a whole holds those more often.
assay metric: growth (%)

O=S1SC(c2ccccc2)=NN1c1cc(F)cc(F)c1 (stereo not given)
34.6
C(=N\Nc1nc(N/N=C/c2ccc3c(c2)OCO3)nc(N2CCCCC2)n1)/c1ccc2c(c1)OCO2
91.9
NC1=NC2(CCCC2)N(c2ccc(S(=O)(=O)Nc3nccs3)cc2)C(N)=N1
102
CC(C)(O)c1cncc(-c2ccc3ncc(C#N)c(N4CCc5cc(F)c(Cl)cc54)c3c2)c1
-2.54
O=C(/C=C/c1ccc(F)cc1)Nc1cccc2cccnc12
97.5

====

compounds and their reported growth
System: PC-3 prostate
Assay: NCI-60 one-dose screen, 48 h (100 = growth as untreated, 0 = no growth, -100 = all killed)
Conditions: 10 µM unless noted
The panel holds about 83,000 compounds, 20% with a hit somewhere; the sample as a whole holds those more often.
assay metric: growth (%)

COc1ccc(/C(=N\NC(N)=S)c2ccc(Cl)cc2)cc1OC
36.4
O=C1[C@@H]2Cc3c([nH]c4ccccc34)[C@H](c3ccc(Cl)cc3)N2C(=O)CN1C1CCN(Cc2ccccc2)CC1
38.8
c1ccc(-c2cn3c(-c4c[nH]c5ccccc45)csc3n2)cc1
43.2
O=C(/C=C/c1cc(Cl)ccc1Cl)Nc1ncc(Cc2ccc(Cl)cc2)s1
27.3
CNC(=O)Nc1ccc(Nc2cc(-c3ccc(-n4cccn4)cc3)[nH]n2)c(C)c1
107
CS(=O)(=O)c1ccc(/C(=N/N=C(N)N)c2ccc(Cl)cc2)cc1
76.5
O=C(NNc1nc2cc(F)cc(F)c2n2cccc12)c1cccnn1
30.7
Cc1csc(/N=C(N)/N=C(\N)c2cccc(Br)c2)n1
87.9
COc1ccc(-c2nc(C#N)c(N3CCC(S(=O)(=O)N4CCOCC4)CC3)o2)cc1
98.2
CN1CCN(c2ccc(Nc3nc(NCCNC(=O)c4ccccc4)c4sccc4n3)cc2)CC1
61.8
COc1ccc(NC2=C(Br)C(=O)C(C)=C(C)C2=O)cc1OC
69.7
CC(Nc1ncnc2ccc(-c3cnc(N)nc3)cc12)c1ccccc1 (stereo not given)
29.7
C#Cc1nc(/C=C\CCCCCCC(=O)NO)cs1
66.9
COc1ccccc1/C=C/C(=O)c1nnn(-c2ccc(F)cc2)c1C
68.9
O=C1Nc2ccccc2/C1=N\c1nnc(-c2ccccc2)o1
79
N#Cc1c(-c2cccs2)c(C#N)c(=O)n(Cc2nc3ccccc3[nH]2)c1N
97.4
CC(C)(O)c1cncc(-c2ccc3ncc(C#N)c(N4CCc5cc(F)c(Cl)cc54)c3c2)c1
11.9
COc1ccc(Cn2cc(C#N)c(N)c2C(C)=O)cc1
105
COc1ccc(-c2cnc(NC(=O)CCCCCCNC(=O)C(O)(O)C(F)(F)F)s2)cc1
17.8
CC(=O)OC[C@]12CC[C@@H](C(=O)/C=C/c3cccnc3)[C@@H]1[C@H]1CC[C@@H]3[C@@]4(C)CC[C@H](OC(C)=O)C(C)(C)[C@@H]4CC[C@@]3(C)[C@]1(C)CC2
19.9
COc1ccc(OC)c(NC(=O)CCCCCCNC(=O)C(O)(O)C(F)(F)F)c1
51.4
COc1ccc2[nH]cc(-c3nn4cc(-c5ccncc5)nc4s3)c2c1
45.7
CCc1cc(O)ccc1Nc1cc(-c2ccc(-n3cccn3)cc2)[nH]n1
60.9
Brc1ccc(-c2cc(-c3ccc4c(c3)OC=CO4)n[nH]2)s1
101
Nc1cc(C(=O)N/N=C\c2ccc(OC(F)F)c(OC3CCCC3)c2)nn1CC(O)c1ccccc1 (stereo not given)
80.7
CN1CCN(Cc2ccc(/C=N/Nc3ccnc4cc(Cl)ccc34)cc2)CC1
75.8
C#CCOc1ccccc1C(OC(=O)c1ccccc1)C(=O)NC(C)(C)C(C)(C)C (stereo not given)
60.7
CN1CCN(c2ccc(Nc3nc(NCCNS(=O)(=O)c4ccc(Cl)cc4)c4sccc4n3)cc2)CC1
81.8
COc1ccc2c(c1)c(/C=N/Nc1ccnc3cc(Cl)ccc13)cn2C
-83.8
N#C/C(=C\c1cccc2c1OCO2)C(=O)Nc1sc2c(c1C#N)CCCC2
109
COc1cc(/C=C2/C(=O)Nc3ccc(Cl)cc32)ccc1OCc1ccc(Cl)cc1
84.2
O=C(CCCCCCNC(=O)C(O)(O)C(F)(F)F)Nc1ccc(Br)cc1
31.6
O=C(CCCCCCNC(=O)c1csc(Br)n1)NO
47.4
N#Cc1c(-c2cccs2)cc(-c2cnccn2)nc1SCC(=O)N/N=C/c1ccncc1
96.4
O=S(=O)(NCCCNc1nccc(-c2[nH]c(-c3ccccc3)nc2-c2ccc(F)c(O)c2)n1)c1cccc2ccccc12
52.8
CN1CCN(Cc2ccc(NC(=O)c3cncc(C#Cc4cnc5ccc(OCCCS(C)(=O)=O)nn45)c3)cc2C(F)(F)F)CC1
1.61
CN1c2ccccc2Sc2cc(/C=N/Nc3ccnc4cc(Cl)ccc34)ccc21
88.6
C#CCOc1ccc(/C=N/Nc2nc(-c3ccc(OC)cc3)cs2)cc1
73.1
COC(=O)c1ccc(NC2=C(Cl)C(=O)c3nc(C)ccc3C2=O)cc1
57.3
C=C(C=O)[C@@H]1CC[C@]2(C(=O)O)CC[C@]3(C)C(CC[C@@H]4[C@@](C)(CCC#N)[C@H](C(=C)C=O)CC[C@]43C)[C@@H]12 (stereo not given in full)
30.3
